Reference source for all entries: paper PMC12416549

- Tgt: T1, TNFR1 (Homo sapiens, UniProt P19438)
- T1 chain: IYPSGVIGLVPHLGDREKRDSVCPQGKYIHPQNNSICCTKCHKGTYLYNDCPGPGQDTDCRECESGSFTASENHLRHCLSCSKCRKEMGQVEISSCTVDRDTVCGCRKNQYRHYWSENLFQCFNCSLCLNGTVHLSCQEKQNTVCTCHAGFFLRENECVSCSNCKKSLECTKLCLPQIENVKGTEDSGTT
- Protocol Description: yeast display SC50

Binder	apparent Kd (screen)
K11S (designed binder) SMEEEVEKAASEYEKKKKEAIEKHLEKLKAKDKEAAERFLKELEEAAKEYAKDEAKTMSEEEAKRRAKKYKEKVLLSELSEEEQKEIKEAEEKLVRTILKYVEEAAK	0.49 nM
Y13N (designed binder) SMEEEVEKAAKENEKKKKEAIEKHLEKLKAKDKEAAERFLKELEEAAKEYAKDEAKTMSEEEAKRRAKKYKEKVLLSELSEEEQKEIKEAEEKLVRTILKYVEEAAK	0.446 nM
K52I (designed binder) SMEEEVEKAAKEYEKKKKEAIEKHLEKLKAKDKEAAERFLKELEEAAKEYAIDEAKTMSEEEAKRRAKKYKEKVLLSELSEEEQKEIKEAEEKLVRTILKYVEEAAK	0.446 nM
A20V (designed binder) SMEEEVEKAAKEYEKKKKEVIEKHLEKLKAKDKEAAERFLKELEEAAKEYAKDEAKTMSEEEAKRRAKKYKEKVLLSELSEEEQKEIKEAEEKLVRTILKYVEEAAK	2.73 nM
